# Test system: A2780
# PROTOCOL_DETAILS: The compound was tested for cytotoxic potency against A2780 human tumor cell lines.
# Type: functional, cell-based
# REPORTED_CONDITIONS: a2780
PARAMETER: pIC50
Here pIC50 is given on a logarithmic scale as minus log10 of the concentration in mol/L.

input: Output reported pIC50 of the sequence "CISPLATIN" on A2780.
output: 6.52
